Taken from patent US20240317689A1.

This section presents compounds with their documented activation at 0.05 µM values.
experimental-target: KCNQ2/3 potassium ion channel (Homo sapiens, UniProt O43525+O43526)
Construct: expressed in transfected cells; host or cells: CHO cells (hKCNQ-CHO)
experiment-description: KCNQ2/3 potassium ion channel activation assay (whole-cell patch clamp, hKCNQ-CHO cells)
Assay type: cell-based
condition-set: test concentration 0.05 μM, read-out: Enhancment % (current enhancement multiple)

Observe how each entry below is paired with its result.
Cc1cc(N2CC=Cc3cc(F)ccc3C2)cc(C)c1NC(=O)CC(C)(C)C; < 50%
Cc1cc(N2CCC(C)(C)c3ccccc3C2)cc(C)c1NC(=O)CC(C)(C)C; < 50%
CCOc1ccc2c(c1)CCCN(c1cc(C)c(NC(=O)CC(C)(C)C)c(C)c1)C2; < 50%
CC1=CCN(c2cc(C)c(NC(=O)CC(C)(C)C)c(C)c2)Cc2ccc(F)cc21; < 50%
Cc1cc(N2CCCc3cc(OC(C)C)c(F)cc3C2)cc(C)c1NC(=O)CC(C)(C)C; 50 to 100%

Looking up Cc1cc(N2CCCc3cc(OC4CCC4)ccc3C2)cc(C)c1NC(=O)CC(C)(C)C , I see its activation at 0.05 µM listed as > 100%

Recorded result, Cc1cc(N2CCCc3cc(OC(C)C(F)(F)F)ccc3C2)cc(C)c1NC(=O)CC(C)(C)C (centres unmarked) , activation at 0.05 µM: 50 to 100%

The value of activation at 0.05 µM measured for the compound Cc1cc(N2CCCc3cc(OC(F)F)ccc3C2)cc(C)c1NC(=O)CC(C)(C)C turned out to be < 50%

Reported activation at 0.05 µM for COc1ccc2c(c1)CCCN(c1cc(C)c(NC(=O)CC(C)(C)C)c(C)c1)C2 was 50 to 100%

Reported activation at 0.05 µM of CCC(C)Oc1ccc2c(c1)CCCN(c1cc(C)c(NC(=O)CC(C)(C)C)c(C)c1)C2 (centres unmarked) : < 50%

// activation at 0.05 µM lookup, compound = Cc1cc(N2CCCc3cc(OC4CCCC4)ccc3C2)cc(C)c1NC(=O)CC(C)(C)C , result: > 100%

activation at 0.05 µM reported for this compound CSc1ccc2c(c1)CCCN(c1cc(C)c(NC(=O)CC(C)(C)C)c(C)c1)C2 : < 50%

The compound Cc1cc(N2CCCc3cc(O[C@H](C)C(F)(F)F)ccc3C2)cc(C)c1NC(=O)CC(C)(C)C showed activation at 0.05 µM equal to 50 to 100%

Note to self: activation at 0.05 µM recorded for Cc1cc(N2CCCc3cc(OC(C)C)ccc3C2)cc(C)c1NC(=O)CC(C)(C)C was < 50%

###

experimental-target: KCNQ2/3 (Homo sapiens, UniProt O43525+O43526)
Construct: expressed in transfected cells; host or cells: CHO cells (hKCNQ-CHO)
experiment-description: Half-maximal activation voltage left shift assay (whole-cell patch clamp, hKCNQ-CHO cells)
Type: cell-based
condition-set: test concentration 300 nM
metric-name: V1/2 Shift (mV)

# count of solved cases: 3
CCC(C)Oc1ccc2c(c1)CCCN(c1cc(C)c(NC(=O)CC(C)(C)C)c(C)c1)C2 (centres unmarked) [Compound 004]; −23.56
Cc1cc(N2CCCc3cc(OC(C)C)ccc3C2)cc(C)c1NC(=O)CC(C)(C)C [Compound 003]; −36.06
Cc1cc(N2CCc3cc(F)ccc3C2)cc(C)c1NC(=O)CC(C)(C)C [Xen-1101, reference compound]; −13.33

I: Cc1cc(N2CCCc3cc(OC(C)C(F)(F)F)ccc3C2)cc(C)c1NC(=O)CC(C)(C)C (centres unmarked) [Compound 008]
II: Cc1cc(N2CCCc3cc(OC4CCCC4)ccc3C2)cc(C)c1NC(=O)CC(C)(C)C [Compound 011]
Query string: Lower V1/2 Shift (mV): I or II ? Indicate which entry you chose by stating its label.
Result string: I
